molecular target: Fibroblast growth factor 2 (Homo sapiens); assay: FGF2 binders on small-molecule microarrays, primary screen, biochemical, small-molecule microarray, 635/667 nm fluorescence (AID 1133); details: small-molecule microarray binding, FGF2, fluorescence 635/667; higher = more signal
Tick true if composite z-score is 0.1 or greater. Tick false if composite z-score is less than 0.1.

Would you say O=c1cccc(C=Cc2ccccc2)o1 shows composite z-score at minimum 0.1?
false

***
Would you say COC(=O)[C@@]1(Cc2ccc(F)cc2)[C@H]2c3cc(C(=O)N(C)C)n(CCc4ccccn4)c3C[C@H]2CN1C(=O)c1ccccc1 shows composite z-score at minimum 0.1?
false

Would you say O=C(CCN1CCOCC1)c1cccc(O)c1 shows composite z-score at minimum 0.1?
true

Would you say NCCCCCNC(=O)[C@H]1C[C@H]2C(=O)NCC(=O)N2[C@H]1c1cccc(OCCO)c1 shows composite z-score at minimum 0.1?
true

Would you say Cc1ccccc1C(O)C1C=CC2C(=O)N(C)C(=O)C2N1Nc1ccccc1 (configuration not stated) shows composite z-score at minimum 0.1?
false

Would you say O=C1O[C@@H](c2ccccc2)[C@@H](c2ccccc2)N2[C@@H](c3ccc(O)cc3)[C@]3(C(=O)Nc4ccc(C#CC5=CCCCC5)cc43)[C@@H](C(=O)O)[C@H]12 shows composite z-score at minimum 0.1?
true

Would you say O=C1OCC=C[C@H]2OC34C=CCN(c5ccc(Cl)cc5)C(=O)[C@H]3N(CCCCCCO)C(=O)[C@@H]4[C@@H]12 (some centres not stated) shows composite z-score at minimum 0.1?
false

====

system: Sonic hedgehog protein (Shh); experiment: small-molecule binders of Shh protein, primary screen, biochemical, small-molecule microarray, 635/667 nm fluorescence (AID 1151); conditions: small-molecule microarray binding, 635 nm fluorescence; higher = more signal;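 note: Shh protein binding to compounds spotted on small-molecule microarray slides; score combines spot fluorescence intensity with signal-to-noise across triplicate slides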
Property Label: composite z-score
Output: the number by itself.

What measured composite z-score goes with C=CC[C@]1(C(=O)N2CCOCC2)N=C(c2ccc(OCCCO)cc2)O[C@H]1c1ccccc1 ?
-0.509

What measured composite z-score goes with O=C1O[C@@H](c2ccccc2)[C@@H](c2ccccc2)N2[C@@H](c3ccccc3OCCO)[C@]3(C(=O)Nc4ccc(C#CC5(O)CCCCCC5)cc43)[C@@H](C(=O)Nc3nc4ccccc4s3)[C@H]12 ?
0.902

What measured composite z-score goes with COc1ccc(CCNC(=O)[C@@H]2c3ccccc3C(=O)N(Cc3ccc(OC(F)(F)F)cc3)[C@H]2c2ccc(CO)cc2)cc1 ?
-0.144

What measured composite z-score goes with COc1ccc([Si](C)(C)[C@H]2[C@H](CCn3cc(CCO)nn3)O[C@@]3(C(=O)N(Cc4ccc(N5CCOC5=O)cc4)c4ccccc43)[C@@H]2C)cc1 ?
1.59

***
What measured composite z-score goes with CCOc1cc(C(O)C2C=CC3C(=O)N(c4ccccc4)C(=O)C3N2Nc2ccc([N+](=O)[O-])cc2)ccc1O (configuration not stated) ?
-0.231

What measured composite z-score goes with C=C[C@@H](COC(C)=O)N(Cc1ccc([N+](=O)[O-])cc1)S(=O)(=O)c1ccc(Br)cc1 ?
0.956

What measured composite z-score goes with CCCCC=C[C@@H](NC(=O)c1ccc(C(=O)OC)cc1)c1ccccc1 ?
0.185

What measured composite z-score goes with O=C1O[C@H](c2ccccc2)[C@H](c2ccccc2)N2[C@H]1[C@@H](C(=O)Nc1nc3ccccc3s1)[C@]1(C(=O)Nc3ccccc31)[C@H]2c1ccc(O)cc1 ?
1.51

What measured composite z-score goes with COc1cc(CO)ccc1OC(C)=O ?
1.05

====

experiment: small-molecule binders of probe aNOTCH2, primary screen, biochemical, small-molecule microarray, 635/667 nm fluorescence (AID 1121); details: higher = more signal;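 note: score merges feature fluorescence read at 667 nm with its signal to noise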
Property Label: composite z-score
Output: the number by itself.

Solved cases (2 shown):
What measured composite z-score goes with O=C1C2C=CC(C(O)c3ccc(F)cc3)N(Nc3ccccc3)C2C(=O)N1c1ccccc1 (centres undefined) ?
0.0449

What measured composite z-score goes with O=C1OCCC=C[C@H]2OC34C=CCN(Cc5ccccc5)C(=O)[C@H]3N(CCCCCCO)C(=O)[C@@H]4C12 (some centres undefined) ?
-0.171

***
What measured composite z-score goes with COc1cc2c(cc1OC)CN(C(=O)[C@@H]1[C@H]3C(=O)O[C@H](c4ccccc4)[C@H](c4ccccc4)N3[C@H](c3ccccc3OCCO)[C@@]13C(=O)Nc1ccc(C#CCNC(N)=O)cc13)CC2 ?
-0.0251

What measured composite z-score goes with Cc1ccccc1C(O)C1C=CC2C(=O)N(C)C(=O)C2N1N1CCCCC1 (centres undefined) ?
0.21

====

experiment: small-molecule binders of probe aNOTCH2, primary screen, biochemical, small-molecule microarray, 635/667 nm fluorescence (AID 1121); details: higher = more signal;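 note: score merges feature fluorescence read at 667 nm with its signal to noise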
Tick t if composite z-score is -0.1 or greater. Tick f if composite z-score is less than -0.1.

# example entries with known answers
Would you say O=C1OCC=C[C@H]2OC34C=CCN(c5ccc(Cl)cc5)C(=O)[C@H]3N(CCCCCCO)C(=O)[C@@H]4[C@@H]12 (stereo partly drawn) shows composite z-score at minimum -0.1?
f

Would you say COCCOC(=O)N1C(=O)[C@@]2(c3cc(C#CC4=CCCCC4)ccc31)[C@H](C(=O)NC[C@H](O)c1ccccc1)[C@H]1C(=O)O[C@H](c3ccccc3)[C@H](c3ccccc3)N1[C@@H]2c1ccc(O)cc1 shows composite z-score at minimum -0.1?
t

Would you say C=CCNC(=O)[C@H]1[C@@H]2C(=O)O[C@@H](c3ccccc3)[C@@H](c3ccccc3)N2[C@@H](c2ccc(O)cc2)[C@]12C(=O)N(C(=O)OCCOC)c1ccc(C#CCCO)cc12 shows composite z-score at minimum -0.1?
t

Would you say CC(C)c1ccc(NN2C(C(O)c3ccc(N(C)C)cc3)C=CC3C(=O)N(c4ccccc4)C(=O)C32)cc1 (stereo not drawn) shows composite z-score at minimum -0.1?
t

Would you say CCOC(=O)C1=CCC(c2ccc([N+](=O)[O-])cc2)N(S(=O)(=O)c2ccc(C)cc2)C1 (stereo not drawn) shows composite z-score at minimum -0.1?
t

***
Would you say COc1ccc(CCNC(=O)[C@@]2(c3ccc([N+](=O)[O-])cc3)CC(=O)N(CC34CC5CC(CC(C5)C3)C4)[C@@H]2c2ccc(CO)cc2)cc1 shows composite z-score at minimum -0.1?
t

====

Listed here: items and their measured composite z-score.
target: Focal adhesion kinase 1 (Homo sapiens); test: small-molecule microarray binders of FAK, primary screen, biochemical, 635/667 nm fluorescence, BSA, DTT (AID 1130); settings: PTK2 binding, 635 nm fluorescence, higher = more signal;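 note: composite of spot emission at 667 nm and signal to noise over triplicate slides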
Output: the number by itself.

Solved cases (5 shown):
What measured composite z-score goes with COc1ccc([Si](C)(C)[C@@H]2[C@@H](CC(=O)N(CCO)Cc3ccccc3)O[C@]3(C(=O)N(C)c4ccccc43)[C@H]2C)cc1 ?
0.495

What measured composite z-score goes with CS(=O)(=O)CCOC(=O)C1=CC(CCCO)=CC(c2cccs2)N(Cc2cc3c(cc2Br)OCO3)C=C1C(=O)OCCS(C)(=O)=O (configuration not stated) ?
1.11

What measured composite z-score goes with COc1ccc(C(O)C2C=CC3C(=O)N(C)C(=O)C3N2Nc2ccccc2)cc1OCc1ccccc1 (configuration not stated) ?
0.091

What measured composite z-score goes with COCCOC(=O)N1C(=O)[C@@]2(c3cc(C#CCC(C(=O)OC)C(=O)OC)ccc31)[C@H](c1ccccc1OCCO)N1[C@H](c3ccccc3)[C@H](c3ccccc3)OC(=O)[C@H]1[C@@H]2C(N)=O ?
-0.418

What measured composite z-score goes with C=C[C@@H](COC(C)=O)N(Cc1ccc([N+](=O)[O-])cc1)S(=O)(=O)c1ccc(Br)cc1 ?
0.079

***
What measured composite z-score goes with CC(C)C[C@@H]1NC(=O)[C@H]2C[C@@H](C(=O)NCCCCCNC(=O)CS)[C@@H](c3cccc(OCCO)c3)N2C1=O ?
0.603

What measured composite z-score goes with CN1C(=O)C2C(C1=O)C1C=C(CCCO)C2C(c2cccs2)N1C (configuration not stated) ?
-0.0834

====

assay: FRG1 promoter luciferase signal modulators, primary screen, FRG1 inhibition for FSHD, cell-based, C2C12 myotubes, firefly/Renilla luciferase, luminescence (AID 1084); conditions: higher = more signal, called active from +8 up or from −8 down
Listed here: items and their measured z-score.
Output: the number by itself.

Solved cases (2 shown):
What measured z-score goes with CCOC(=O)C[C@H]1[C@H](OC(=O)c2ccccc2-c2ccccc2)[C@@H](NC(=O)c2ccc3ccccc3c2)c2cc(OCCCO)ccc2N1C(=O)c1ccc2ccccc2n1 ?
0.122

What measured z-score goes with COc1ccc(C#Cc2ccc3c(c2)[C@]2(C(=O)N3)[C@H](c3ccc(O)cc3)N3[C@H](c4ccccc4)[C@H](c4ccccc4)OC(=O)[C@H]3[C@@H]2C(=O)NC[C@H](O)c2ccccc2)cc1 ?
0.72

***
What measured z-score goes with COCCOC(=O)N1C(=O)[C@@]2(c3ccccc31)[C@H](C(=O)NC[C@H](O)c1ccccc1)[C@H]1C(=O)O[C@H](c3ccccc3)[C@H](c3ccccc3)N1[C@@H]2c1ccc(OCCO)cc1 ?
-0.31

What measured z-score goes with COC(=O)c1ccc(C(O)C2C=CC3C(=O)N(C)C(=O)C3N2NC(=O)OC(C)(C)C)o1 (configuration not stated) ?
0.896

What measured z-score goes with COc1ccc(NN2C(C(O)c3ccc(OC)c(OCc4ccccc4)c3)C=CC3C(=O)N(C4CCCCC4)C(=O)C32)cc1 (configuration not stated) ?
0.0498
